- Protocol description: Evaluation of heat resistance by TG-DTA
- Format: physicochemical
- Condition parameters: temperature at 10% weight loss
Give 10% weight loss for every item shown.
Numbers only, in °C.

// worked examples, 10% weight loss included
{"Compound": "CN(CCO)c1ccc(/C=C(\\C#N)C(=O)OCCCCCCOC(=O)/C(C#N)=C/c2ccc(N(C)CCO)cc2)cc1 [Compound No. 59]", "Property": "10% weight loss", "Readout value": 295}
{"Compound": "CCN(CC)c1ccc(/C=C(\\C#N)C(=O)OCC(C)(COC(=O)/C(C#N)=C/c2ccc(N(C)CCO)cc2)COC(=O)/C(C#N)=C/c2ccc(N(C)CCO)cc2)cc1 [Compound No. 99]", "Property": "10% weight loss", "Readout value": 320}
{"Compound": "CCN(CC)c1ccc(/C=C(\\C#N)C(=O)OCC(C)(COC(=O)/C(C#N)=C/c2ccc(N3CCOCC3)cc2)COC(=O)/C(C#N)=C/c2ccc(N3CCOCC3)cc2)cc1 [Compound No. 97]", "Property": "10% weight loss", "Readout value": 334}
{"Compound": "CCN(CCC#N)c1ccc(/C=C(\\C#N)C(=O)OCCCCCCOC(=O)/C(C#N)=C/c2ccc(N(CC)CCC#N)cc2)cc1 [Compound No. 58]", "Property": "10% weight loss", "Readout value": 351}
{"Compound": "C=C(C)C(=O)OCCN(C)c1ccc(/C=C(\\C#N)C(=O)OCCCCCCOC(=O)/C(C#N)=C/c2ccc(N(C)CCOC(=O)C(=C)C)cc2)cc1 [Compound No. 66]", "Property": "10% weight loss", "Readout value": 354}
{"Compound": "CN(C)c1ccc(/C=C(\\C#N)C(=O)OCCCCCCCCCCOC(=O)/C(C#N)=C/c2ccc(N(C)C)cc2)cc1 [Compound No. 61]", "Property": "10% weight loss", "Readout value": 350}

Look at each compound and report its 10% weight loss.
1. CCN(CC)c1ccc(/C=C(\C#N)C(=O)Oc2ccc(C(C)(C)c3ccc(OC(=O)/C(C#N)=C/c4ccc(N(CC)CC)cc4)cc3)cc2)cc1 [Compound No. 6]
2. CCN(CC)c1ccc(/C=C(\C#N)C(=O)OCC(C)(COC(=O)/C(C#N)=C/c2ccc(N(C)CCO)cc2)COC(=O)/C(C#N)=C/c2ccc(N(CC)CC)cc2)cc1 (centres unmarked) [Compound No. 100]
3. CC(COC(=O)/C(C#N)=C/c1ccc(N2CCOCC2)cc1)OC(=O)/C(C#N)=C/c1ccc(N2CCOCC2)cc1 (centres unmarked) [Compound No. 43]
4. CCOC(=O)/C(C#N)=C/c1ccc(N(CC)CC)cc1 [Comparative Compound No. 1, reference compound]
5. CCN(CC)c1ccc(/C=C(\C#N)C(=O)OCC(C)(COC(=O)/C(C#N)=C/c2ccc(N(CC)CC)cc2)COC(=O)/C(C#N)=C/c2ccc(N(c3ccccc3)c3ccccc3)cc2)cc1 (centres unmarked) [Compound No. 96]

[322, 330, 318, 259, 347]
